Target: Phosphatidylinositol 4,5-bisphosphate 3-kinase catalytic subunit delta isoform (Homo sapiens)
Sequence (O00329 whole entry): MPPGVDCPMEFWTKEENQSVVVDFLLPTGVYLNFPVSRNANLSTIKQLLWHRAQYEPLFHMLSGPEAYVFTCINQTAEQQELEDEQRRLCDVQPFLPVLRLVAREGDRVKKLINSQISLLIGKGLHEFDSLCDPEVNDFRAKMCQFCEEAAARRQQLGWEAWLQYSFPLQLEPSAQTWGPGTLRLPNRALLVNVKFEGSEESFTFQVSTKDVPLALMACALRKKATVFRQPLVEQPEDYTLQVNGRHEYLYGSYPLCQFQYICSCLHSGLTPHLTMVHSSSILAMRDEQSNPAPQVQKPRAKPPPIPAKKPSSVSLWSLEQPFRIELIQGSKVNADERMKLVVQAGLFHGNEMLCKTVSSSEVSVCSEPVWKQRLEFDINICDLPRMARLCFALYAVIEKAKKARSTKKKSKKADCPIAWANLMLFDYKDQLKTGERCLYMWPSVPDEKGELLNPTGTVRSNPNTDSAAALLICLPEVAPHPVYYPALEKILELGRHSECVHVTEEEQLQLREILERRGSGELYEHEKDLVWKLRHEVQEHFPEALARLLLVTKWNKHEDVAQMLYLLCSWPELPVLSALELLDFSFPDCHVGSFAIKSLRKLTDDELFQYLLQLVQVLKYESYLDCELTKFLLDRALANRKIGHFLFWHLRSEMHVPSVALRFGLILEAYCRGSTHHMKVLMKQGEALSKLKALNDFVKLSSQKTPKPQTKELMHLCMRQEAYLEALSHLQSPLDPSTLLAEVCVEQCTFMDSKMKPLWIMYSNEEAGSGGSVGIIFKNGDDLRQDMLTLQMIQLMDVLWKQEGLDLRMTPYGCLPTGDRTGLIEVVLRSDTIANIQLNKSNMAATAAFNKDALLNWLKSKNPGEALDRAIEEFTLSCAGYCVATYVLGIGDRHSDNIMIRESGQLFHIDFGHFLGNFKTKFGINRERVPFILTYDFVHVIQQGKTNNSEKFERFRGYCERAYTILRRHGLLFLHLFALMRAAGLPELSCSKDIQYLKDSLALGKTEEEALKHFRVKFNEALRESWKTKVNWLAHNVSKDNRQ
Assay: Inhibition of PI3K delta (unknown origin)
Overview of reported IC50 across a group of compounds:

Below, each entry is followed by its recorded IC50 result.
{"COMPOUND": "CCc1cc(-c2c[nH]c3ncc(-c4ccc(N)nc4)cc23)nc(N)n1", "IC50": "> 10 µM"}
{"COMPOUND": "CCc1cc(-c2c[nH]c3ncc(-c4cnn(CC(C)C)c4)cc23)nc(N)n1", "IC50": "> 10 µM"}
{"COMPOUND": "Nc1nccc(-c2c[nH]c3ncccc23)n1 [MERIOLIN 1]", "IC50": "> 10 µM"}
{"COMPOUND": "CCc1cc(-c2c[nH]c3ncc(-c4cn[nH]c4)cc23)nc(N)n1", "IC50": "> 30 µM"}
{"COMPOUND": "CCCCc1cc(-c2c[nH]c3ncc(-c4cnn(C5CCNCC5)c4)cc23)nc(N)n1", "IC50": "4 µM"}

(Q) Tell me the measured IC50 of CCc1cc(-c2c[nH]c3ncc(-c4cnn(C)c4)cc23)nc(N)n1 , please.
(A) > 10 µM

(Q) Tell me the measured IC50 of CCc1cc(-c2c[nH]c3ncc(-c4cnn(CCN(C)C)c4)cc23)nc(N)n1 , please.
(A) > 10 µM

(Q) Tell me the measured IC50 of CCc1cc(-c2c[nH]c3ncc(-c4ccn[nH]4)cc23)nc(N)n1 , please.
(A) > 10 µM

(Q) Tell me the measured IC50 of CCCCc1cc(-c2c[nH]c3ncccc23)nc(N)n1 , please.
(A) > 10 µM

(Q) Tell me the measured IC50 of CCc1cc(-c2c[nH]c3ncc(-c4ccco4)cc23)nc(N)n1 , please.
(A) > 10 µM

---

biological target: Serine/threonine-protein kinase Nek2 (Homo sapiens); experiment: Inhibition of human NEK2A (1 to 445 residues) assessed as enzyme activity at 1 uM using 33P ATP by radioactive filter binding assay; set-up: scale not given: the % may be the effect or the level left
OBSERVED PROPERTY: Activity (%)

{"SMILES REPRESENTATION": "CCc1cc(-c2c[nH]c3ncc(-c4cnn(C5CCNCC5)c4)cc23)nc(N)n1", "TEST SYSTEM": "Serine/threonine-protein kinase Nek2 (Homo sapiens)", "Activity, %": -58}
{"SMILES REPRESENTATION": "CCCCc1cc(-c2c[nH]c3ncccc23)nc(N)n1", "TEST SYSTEM": "Serine/threonine-protein kinase Nek2 (Homo sapiens)", "Activity, %": 2}

(A) Nc1nccc(-c2c[nH]c3ncccc23)n1
(B) CCCCc1cc(-c2c[nH]c3ncc(-c4cnn(C5CCNCC5)c4)cc23)nc(N)n1
(Q) Lower value for measured Activity? Options: A , B Return value: the label identifying the chosen record.
(A) B

---

biological target: Serine/threonine-protein kinase N2 (Homo sapiens) (UniProt Q16513); test: Inhibition of human PRK2 (501 to 984 residues) assessed as enzyme activity at 1 uM using 33P ATP by radioactive filter binding assay; set-up: scale not given: the % may be the effect or the level left
Sequence (Q16513 whole entry, looked up, the tested form may be a part): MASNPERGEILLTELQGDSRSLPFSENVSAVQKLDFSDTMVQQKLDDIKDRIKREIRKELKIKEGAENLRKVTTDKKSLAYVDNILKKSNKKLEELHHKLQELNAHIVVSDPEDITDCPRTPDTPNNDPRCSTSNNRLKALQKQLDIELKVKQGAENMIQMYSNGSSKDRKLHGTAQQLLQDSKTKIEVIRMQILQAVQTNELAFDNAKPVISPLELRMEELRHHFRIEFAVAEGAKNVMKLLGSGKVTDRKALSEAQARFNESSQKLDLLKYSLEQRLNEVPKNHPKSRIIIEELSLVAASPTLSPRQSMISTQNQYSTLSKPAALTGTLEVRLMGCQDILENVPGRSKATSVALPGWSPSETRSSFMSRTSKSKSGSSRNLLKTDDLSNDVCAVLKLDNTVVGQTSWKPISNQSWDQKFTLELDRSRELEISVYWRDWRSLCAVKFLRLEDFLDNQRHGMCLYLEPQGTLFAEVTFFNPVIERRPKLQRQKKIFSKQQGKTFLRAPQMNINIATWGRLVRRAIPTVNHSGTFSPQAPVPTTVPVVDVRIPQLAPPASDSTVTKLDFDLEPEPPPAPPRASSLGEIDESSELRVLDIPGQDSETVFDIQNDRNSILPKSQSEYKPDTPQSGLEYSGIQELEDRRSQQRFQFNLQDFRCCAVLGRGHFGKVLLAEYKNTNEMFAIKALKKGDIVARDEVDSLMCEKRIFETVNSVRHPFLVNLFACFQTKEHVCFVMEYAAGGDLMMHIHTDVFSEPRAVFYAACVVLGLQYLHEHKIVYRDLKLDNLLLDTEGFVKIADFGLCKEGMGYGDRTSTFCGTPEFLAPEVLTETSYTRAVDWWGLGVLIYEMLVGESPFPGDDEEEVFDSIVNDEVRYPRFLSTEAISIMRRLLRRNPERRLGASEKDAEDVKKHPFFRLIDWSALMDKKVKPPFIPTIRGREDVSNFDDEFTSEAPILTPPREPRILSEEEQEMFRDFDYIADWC
OBSERVED PROPERTY: Activity (%)

{"SMILES REPRESENTATION": "CCc1cc(-c2c[nH]c3ncc(-c4cnn(C5CCNCC5)c4)cc23)nc(N)n1", "REPORTED RESULT": -86}
{"SMILES REPRESENTATION": "Nc1nccc(-c2c[nH]c3ncccc23)n1", "REPORTED RESULT": -73}

(A) CCCCc1cc(-c2c[nH]c3ncccc23)nc(N)n1
(B) CCCCc1cc(-c2c[nH]c3ncc(-c4cnn(C5CCNCC5)c4)cc23)nc(N)n1
(Q) Lower value for measured Activity? Options: A , B Return value: the label identifying the chosen record.
(A) B
(B: -94%, A: -63%)

---

molecular target: Maternal embryonic leucine zipper kinase (Homo sapiens) (UniProt Q14680); test: Inhibition of human MELK (2 to 651 residues) assessed as enzyme activity at 1 uM using 33P ATP by radioactive filter binding assay; design: scale not given: the % may be the effect or the level left
Sequence (Q14680 whole entry, looked up, the tested form may be a part): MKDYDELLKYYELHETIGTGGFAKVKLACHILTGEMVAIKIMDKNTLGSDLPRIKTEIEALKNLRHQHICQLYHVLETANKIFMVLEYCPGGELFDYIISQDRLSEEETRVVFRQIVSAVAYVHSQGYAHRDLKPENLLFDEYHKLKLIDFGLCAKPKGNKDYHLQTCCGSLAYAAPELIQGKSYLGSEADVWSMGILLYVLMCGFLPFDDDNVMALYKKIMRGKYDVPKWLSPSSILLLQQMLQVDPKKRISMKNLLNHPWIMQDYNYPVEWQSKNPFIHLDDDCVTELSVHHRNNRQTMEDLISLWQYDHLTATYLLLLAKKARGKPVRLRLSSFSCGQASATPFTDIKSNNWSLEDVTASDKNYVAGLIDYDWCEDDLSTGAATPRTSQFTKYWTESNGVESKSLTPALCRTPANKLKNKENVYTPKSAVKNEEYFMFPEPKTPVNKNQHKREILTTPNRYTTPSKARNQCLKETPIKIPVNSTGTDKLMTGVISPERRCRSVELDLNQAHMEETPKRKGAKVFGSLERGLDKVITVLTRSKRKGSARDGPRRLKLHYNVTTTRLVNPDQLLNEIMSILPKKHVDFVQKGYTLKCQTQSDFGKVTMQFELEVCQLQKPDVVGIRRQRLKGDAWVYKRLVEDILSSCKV
OBSERVED PROPERTY: Activity (%)

{"SMILES REPRESENTATION": "CCc1cc(-c2c[nH]c3ncc(-c4cnn(C5CCNCC5)c4)cc23)nc(N)n1", "TEST SYSTEM": "Maternal embryonic leucine zipper kinase (Homo sapiens) (UniProt Q14680)", "Activity [%]": -81}
{"SMILES REPRESENTATION": "Nc1nccc(-c2c[nH]c3ncccc23)n1", "TEST SYSTEM": "Maternal embryonic leucine zipper kinase (Homo sapiens) (UniProt Q14680)", "Activity [%]": -64}
{"SMILES REPRESENTATION": "CCCCc1cc(-c2c[nH]c3ncccc23)nc(N)n1", "TEST SYSTEM": "Maternal embryonic leucine zipper kinase (Homo sapiens) (UniProt Q14680)", "Activity [%]": -89}
{"SMILES REPRESENTATION": "CCCCc1cc(-c2c[nH]c3ncc(-c4cnn(C5CCNCC5)c4)cc23)nc(N)n1", "TEST SYSTEM": "Maternal embryonic leucine zipper kinase (Homo sapiens) (UniProt Q14680)", "Activity [%]": -85}

---

target: Serine/threonine-protein kinase D1 (Homo sapiens) (UniProt Q15139); test: Inhibition of human PKD1 (2 to 912 residues) assessed as enzyme activity at 1 uM using 33P ATP by radioactive filter binding assay; set-up: scale not given: the % may be the effect or the level left
Sequence (Q15139 whole entry, the tested form may be a part): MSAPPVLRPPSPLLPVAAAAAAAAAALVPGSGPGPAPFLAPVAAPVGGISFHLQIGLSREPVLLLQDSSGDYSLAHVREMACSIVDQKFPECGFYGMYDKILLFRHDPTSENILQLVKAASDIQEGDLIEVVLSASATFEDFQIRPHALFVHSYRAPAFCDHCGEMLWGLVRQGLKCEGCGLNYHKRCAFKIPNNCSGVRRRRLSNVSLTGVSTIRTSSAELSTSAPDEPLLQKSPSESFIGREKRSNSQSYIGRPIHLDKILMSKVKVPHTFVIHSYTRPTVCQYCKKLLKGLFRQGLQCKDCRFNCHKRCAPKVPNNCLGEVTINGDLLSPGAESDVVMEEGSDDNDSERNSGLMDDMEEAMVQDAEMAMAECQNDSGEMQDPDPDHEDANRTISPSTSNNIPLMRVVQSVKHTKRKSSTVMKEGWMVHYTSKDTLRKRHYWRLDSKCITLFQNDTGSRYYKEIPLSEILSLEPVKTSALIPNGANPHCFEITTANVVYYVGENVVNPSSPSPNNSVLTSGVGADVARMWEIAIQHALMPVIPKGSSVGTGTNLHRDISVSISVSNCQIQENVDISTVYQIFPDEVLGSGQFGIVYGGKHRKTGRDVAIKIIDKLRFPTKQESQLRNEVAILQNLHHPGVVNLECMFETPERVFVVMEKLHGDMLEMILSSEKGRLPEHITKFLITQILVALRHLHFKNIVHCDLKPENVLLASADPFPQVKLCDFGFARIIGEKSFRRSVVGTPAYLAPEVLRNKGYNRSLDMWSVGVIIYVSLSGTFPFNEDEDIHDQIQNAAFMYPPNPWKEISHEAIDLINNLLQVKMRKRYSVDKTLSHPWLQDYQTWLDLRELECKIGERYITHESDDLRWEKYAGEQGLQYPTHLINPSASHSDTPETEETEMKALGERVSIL
OBSERVED PROPERTY: Activity (%)

Below, each entry is followed by its recorded Activity result.
{"SMILES REPRESENTATION": "CCc1cc(-c2c[nH]c3ncc(-c4cnn(C5CCNCC5)c4)cc23)nc(N)n1", "TEST SYSTEM": "Serine/threonine-protein kinase D1 (Homo sapiens) (UniProt Q15139)", "Activity [%]": -96}
{"SMILES REPRESENTATION": "Nc1nccc(-c2c[nH]c3ncccc23)n1", "TEST SYSTEM": "Serine/threonine-protein kinase D1 (Homo sapiens) (UniProt Q15139)", "Activity [%]": -41}

(a) CCCCc1cc(-c2c[nH]c3ncccc23)nc(N)n1
(b) CCCCc1cc(-c2c[nH]c3ncc(-c4cnn(C5CCNCC5)c4)cc23)nc(N)n1
(Q) Lower value for measured Activity? Options: a , b Return value: the label identifying the chosen record.
(A) b
(b: -98%, a: -53%)

---

molecular target: Calcium/calmodulin-dependent protein kinase kinase 2 (Homo sapiens); assay: Inhibition of human CAMKKb (1 to 541 residues) assessed as enzyme activity at 1 uM using 33P ATP by radioactive filter binding assay; design: scale not given: the % may be the effect or the level left
OBSERVED PROPERTY: Activity (%)

{"MOLECULE": "CCCCc1cc(-c2c[nH]c3ncccc23)nc(N)n1", "UNIT ANNOTATION": "%", "Activity": -2}
{"MOLECULE": "CCCCc1cc(-c2c[nH]c3ncc(-c4cnn(C5CCNCC5)c4)cc23)nc(N)n1", "UNIT ANNOTATION": "%", "Activity": -86}

(1) CCc1cc(-c2c[nH]c3ncc(-c4cnn(C5CCNCC5)c4)cc23)nc(N)n1
(2) Nc1nccc(-c2c[nH]c3ncccc23)n1 [MERIOLIN 1]
(Q) Which of the two gives a bigger number for Activity: 1 or 2 ? Return value: the label identifying the chosen record.
(A) 2
(2: -31%, 1: -58%)

All figures here come from ChEMBL document CHEMBL3813616.
